System: COLO 205
PROTOCOL_SUMMARY: NCI tumour cell line growth inhibition, 48 h
Activity calls are given as the source filed them. Cut-off read from the data, not from the text of the source: active = GI50 up to about 1.1 µM and inactive = higher.
Outcomes: 1 (active), 0 (inactive)

MOLECULE | ASSIGNED_CLASS
[O-][n+]1c2ccccc2[n+]([O-])c2cc(Br)ccc21 | 0
COc1ccc(CC2=NCCc3cc(OC)c(OC)cc32)cc1Br | 0
O=c1cc(CSc2c(-c3ccccc3)c(=O)n(-c3ccccc3)c(=S)n2-c2ccccc2)[nH]c(=O)[nH]1 | 0
Cc1cc(C)n(CN(CCCCO)Cn2nc(C)cc2C)n1 | 0
O=C1c2cccnc2-c2nccc3c2c1nc1ccc(Br)cc13 | 1
CC(C)C1CC[C@@H](C)C[C@@]1(O)CC(N)=O (stereo partly specified) | 0
O=C(O)CN1CCN2CCCCCCCCN(CC1)CCN(CC(=O)O)CC2 | 0
CC1OC(O[C@H]2CC[C@]3(C)[C@H]4CC=C5[C@@H]6[C@@H](C)[C@H](C)CC[C@]6(C(=O)O)CC[C@@]5(C(=O)O)[C@]4(C)CC[C@H]3C2(C)C)C(O)C(O)C1O (stereo partly specified) | 0
CCCCCCCCCCCCCCC(C(=O)[O-])[n+]1ccccc1 (stereo unspecified) | 0
COc1ccc2nc3cc(Cl)ccc3c(NCCCN(Cc3cc(OC)c(OC)c(OC)c3)Cc3cc(OC)c(OC)c(OC)c3)c2c1 | 0
Nc1ccccc1/N=N/c1c(S(=O)(=O)O)cc2cc(S(=O)(=O)O)cc(O)c2c1O | 0

* * *

Tested on: HL-60
PROTOCOL_SUMMARY: NCI tumour cell line growth inhibition, 48 h
Calls of active or inactive are those of the source. Rule as the data show it: active = GI50 up to about 1.1 µM and inactive = higher. Square brackets hold non-standard residues; d marks the D form. Peptide text beside a SMILES is read from it. * marks the point of attachment. X26 = COC1=CC(=O)N(C(=O)[C@@H](O*)C(C)C)[C@H]1Cc1ccccc1; NMeV = CN[C@H](C(=O)O)C(C)C; Hexanoyl = CCCCCC(=O)*
Outcomes: active, inactive

COMPOUND | TESTED_ON | ASSIGNED_CLASS
COC(=O)/C(Cl)=C1/CC1COCc1ccccc1 (stereo unspecified) | HL-60 | inactive
COc1ccc(OC)c(/C(C)=N/NC(N)=S)c1 | HL-60 | inactive
O=c1cc(CSc2c(-c3ccccc3)c(=O)n(-c3ccccc3)c(=S)n2-c2ccccc2)[nH]c(=O)[nH]1 | HL-60 | inactive
O=C(/C=C/c1cc(O)c(O)cc1O)OCCc1ccccc1 | HL-60 | inactive
CCOP(=O)(O)C(Nc1ccc(/N=N/c2ccccc2)cc1)c1cccc(C(Nc2ccc(/N=N/c3ccccc3)cc2)P(=O)(O)OCC)c1 (stereo unspecified) | HL-60 | inactive
C=CCN1C[C@H](C)N([C@@H](c2ccc(C(=O)N3CCCCC3)cc2)c2cccc(OC)c2)C[C@H]1C | HL-60 | inactive
O=C(C=P(c1ccccc1)(c1ccccc1)c1ccccc1)c1ccc(-c2ccc(F)cc2F)cc1 | HL-60 | inactive
O=C(Nc1ccc(C(F)(F)F)cc1)NC(F)(F)F | HL-60 | inactive
COc1cccc2c1C(=O)c1c(O)c3c(c(O)c1C2=O)C[C@@](O)(C(=O)CO)C[C@@H]3OC1CC(N2CCOCC2C#N)C(O)C(C)O1 (stereo partly specified) | HL-60 | active
Cl/C(=C\C=N\c1ccc(I)cc1)c1ccc2ccccc2c1 | HL-60 | inactive
COc1cc2c3c(c1)CCCN3CCC2 | HL-60 | inactive
CC(C)(CCC(C)(C)N1OC1c1ccccc1)N1OC1c1ccccc1 (stereo unspecified) | HL-60 | inactive
N=NCC(=O)OC(COCc1ccccc1)COCc1ccccc1 | HL-60 | inactive
CC(=O)OCC1OC(OC2CC3C(C)(C)C(O)CC[C@]3(C)C3CCC45CC4(CCC5[C@@H](C)CC(O)C(O)C(C)(C)O)[C@]23C)C(O)C(O)C1O (stereo partly specified) | HL-60 | inactive
N=C1CSC2=NC3=C(CCC/C3=C\c3ccccc3)C(c3ccccc3)N12 (stereo unspecified) | HL-60 | inactive
Cc1ncc2c(=O)c3c(oc2n1)c1ccccc1n3Cc1ccccc1 | HL-60 | inactive
O=C(N/N=C/c1cc(-c2ccccc2Cl)c(-c2ccccc2Cl)o1)c1ccncc1 | HL-60 | inactive
O=c1ccc2c(Cl)cccc2o1 | HL-60 | inactive
[O-]c1c2cc(-[n+]3c(-c4ccccc4)cc(-c4ccccc4)cc3-c3ccccc3)cc1CO[C@@H](c1ccccc1)[C@H](c1ccccc1)OCCOCCO[C@@H](c1ccccc1)[C@H](c1ccccc1)OC2 | HL-60 | active
CC(C)(C)c1cc(C2NCCO2)cc(C(C)(C)C)c1O (stereo unspecified) | HL-60 | inactive
O=C1CCC2SC1CCC2=O | HL-60 | inactive
CCCCCC(=O)N[C@H](C(=O)N[C@H](C(=O)N(C)[C@H](C(=O)N1CCC[C@H]1C(=O)N1CCC[C@H]1C(=O)O[C@H](C(=O)N1C(=O)C=C(OC)[C@@H]1Cc1ccccc1)C(C)C)C(C)C)C(C)C)C(C)C (Hexanoyl-VV[NMeV]PP-X26) | HL-60 | inactive
O=C(NNCc1ccc(Cl)cc1)Nc1cccc2ccccc12 | HL-60 | inactive
C=C1CC(C)(COc2cc(=O)oc3ccccc23)OC1=O (stereo unspecified) | HL-60 | inactive
Cc1oc2nc(N(C)C)n3cnnc3c2c1C | HL-60 | inactive
Cc1c([N+](=O)[O-])oc2ccc3ccccc3c12 | HL-60 | inactive
Clc1ccc(CN2COc3c(cc(Cl)c4cccnc34)C2)cc1 | HL-60 | active
O=C1N/C(=N/N=C/C(O)C(O)C(O)C(O)CO)N/C1=C\c1ccco1 (stereo unspecified) | HL-60 | inactive
CN(C)Cc1ccc(-c2cc3onc(-c4ccccc4)c3c(=O)n2C)cc1 | HL-60 | active
COc1ccc(-c2csc(Cc3nc4ccccc4c(=O)n3-c3ccc(Cl)cc3)n2)cc1 | HL-60 | inactive
O=C1C=C(c2c(-c3ccccc3)[nH]c3ccccc23)C(=O)N1c1ccccc1 | HL-60 | inactive
CC(=O)OCC1OC(c2nc3ccccc3s2)=CC(OC(C)=O)C1OC(C)=O (stereo unspecified) | HL-60 | inactive
CN(C)S(=O)(=O)/N=C/c1cccc(/C=N/S(=O)(=O)N(C)C)c1 | HL-60 | inactive
Cc1ccc2nc(C(C)C)c(=O)[nH]c2c1 | HL-60 | inactive
CCOP(=O)(OCC)C1CC(C)OC1=O (stereo unspecified) | HL-60 | inactive
CO/C=C/c1cc2c(cc1C(OC)OC)OCO2 | HL-60 | inactive
Cc1ccc(NC(=O)c2c(C)nc(=O)n3c2N(/N=C/c2ccc(Cl)cc2)CC3)cc1 | HL-60 | inactive
CC(=O)OCC1OC(OC(C)=O)C(Nc2ncc(-c3ccc(C)cc3)s2)C(OC(C)=O)C1OC(C)=O (stereo unspecified) | HL-60 | inactive
COc1cc2c(cc1OC)C1C(O)C(OC)C=C3CC[N+](C)(C2)C31 (stereo unspecified) | HL-60 | inactive
N#CC12C(=O)N3C(=NC(c4ccccc4)NC3c3ccccc3)C1(C#N)C(c1ccccc1)NC1=C2CCCC1 (stereo unspecified) | HL-60 | inactive
CN(CCNC(=O)c1n[nH]c2c1ccc1ccccc12)CCNC(=O)c1n[nH]c2c1ccc1ccccc12 | HL-60 | inactive

* * *

GI50 values, listed per item
Test system: OVCAR-5
PROTOCOL_SUMMARY: NCI tumour cell line growth inhibition, 48 h
Active and inactive are the calls of the source. No stated cut-off is given here; in the data, active = GI50 up to about 1.1 µM and inactive = higher.

COMPOUND | GI50
CC1CCOc2ccc(cc2)/C=N\c2ccc(cc2)CCc2ccc(cc2)/N=C\c2ccc(cc2)OCC1 | > 100 µM (inactive)
C=C1CC(C)(COc2cc(=O)oc3ccccc23)OC1=O (centres undefined) | 7.78 µM (inactive)
CCC1(C)NN=c2s/c(=C/c3ccc(OC)cc3)c(=O)n2N1 (centres undefined) | > 100 µM (inactive)
CC1=NC2(C(=O)O)C3(C(=O)O)N=C(C)OC3(C(F)(F)F)C2(C(F)(F)F)O1 (centres undefined) | > 100 µM (inactive)
O=C1CCC(C(=O)O)C2=C1CCCC2 (centres undefined) | > 21.5 µM (inactive)
OCC1OC(n2cnc3c2NC=NC[C@H]3O)CC1O (some centres undefined) | > 500 µM (inactive)
C=C1C(=O)OC2C1CC[C@H](C)C13OC(=O)CC1[C@@]23C (some centres undefined) | > 100 µM (inactive)
COc1ccc2nc3cc(Cl)ccc3c(NCCCN(Cc3cc(OC)c(OC)c(OC)c3)Cc3cc(OC)c(OC)c(OC)c3)c2c1 | 13.3 µM (inactive)
CN(C)CCNC(=O)c1cccc2c1Nc1ccccc1S2 | 13.4 µM (inactive)
N#Cc1ccc(/N=N/N2CCCC2)cc1 | > 100 µM (inactive)
COc1ccc(Nc2nc3ccc(C(F)(F)F)cc3nc2C(=O)O)cc1 | 28.2 µM (inactive)
O=C(O)C1C2CCC(C2)C1c1ccccc1 (centres undefined) | > 100 µM (inactive)
Cc1cccc(-c2cc(O)c3c(C)ccnc3n2)c1 | 1.19 µM (inactive)
CN(/N=C/c1ccccn1)C1=NCCCN1 | > 100 µM (inactive)
CSc1nc(NC2CC2)c2c(n1)Sc1nc3ccccc3n1N=C2 | 37.2 µM (inactive)
O=C1C=C(c2c(-c3ccccc3)[nH]c3ccccc23)C(=O)N1c1ccccc1 | 14.8 µM (inactive)
O=c1cc(CSc2c(-c3ccccc3)c(=O)n(-c3ccccc3)c(=S)n2-c2ccccc2)[nH]c(=O)[nH]1 | > 100 µM (inactive)
Cc1cc(C)cc(Nc2cc(O)nc(O)n2)c1 | > 100 µM (inactive)
FC(F)(F)c1ccc2nc3n(c2c1)C(c1c(Cl)cccc1Cl)SC3 (centres undefined) | 15.9 µM (inactive)
C/C=C(\C)CC/C=C/CO[Si](C)(C)C(C)(C)C | > 100 µM (inactive)
Oc1ncnc2c1CCCN2 | > 100 µM (inactive)
COc1ccc(C(O)c2nccn2C)c(OC)c1 (centres undefined) | > 100 µM (inactive)
O=C1CCC2SC1CCC2=O | > 100 µM (inactive)
O=C(NNC(=O)c1csc(NC(=S)NC2CCCCC2)n1)c1ccccc1 | 11.9 µM (inactive)
